Origin of values: ChEMBL document CHEMBL4616697

- assay.comment: Metabolic stability in guinea pig liver microsomes assessed as parent compound remaining at 1 uM pretreated for 30 mins followed by NADPH addition and measured after 60 mins by LC-MS/MS analysis
- Format: ADME, Cavia porcellus, Microsome
- experimental.conditions: read-out: Stability
Listed here: items and their measured remaining at 1 h, 1 µM.
Entry rule: numbers only, all in %.

Reference set, count: 2
| molecule | unit.spec | quantitative.result |
| --- | --- | --- |
| CC12CC3CC(C(=O)N[C@H]4CC[C@H](CN)CC4)(C1)CC(c1ccccc1)(C3)C2 (stereo in doubt; 40) | % | 99 |
| CCC12CC3CC(C(=O)N[C@H]4CC[C@H](N)CC4)(C1)CC(c1ccccc1)(C3)C2 (stereo in doubt; 42) | % | 36 |

// switching to the query molecule
Problem: Answer with reported remaining at 1 h, 1 µM of CC12CC3CC(C(=O)N[C@H]4CC[C@H](N)CC4)(C1)CC(c1ccccc1)(C3)C2 (stereo in doubt; 38)
Solution: 100
